Below are pKi values for Carbonic anhydrase 9 (Homo sapiens, UniProt Q16790) collected from several publications.
pKi: −log10 of the molar value.
reportedProperty: pKi

Some molecules with known pKi results, for comparison:
molecule	observedValue
NS(=O)(=O)c1ccc(-c2ccc([N+](=O)[O-])cc2)cc1	8.02
NS(=O)(=O)c1ccc(N2C(=O)c3c(Br)c(Br)c(Br)c(Br)c3C2=O)c(Br)c1	8.06
O=C(Oc1cc2ccc(=O)oc2cc1OC(=O)c1ccccc1)c1ccccc1	7.42
NS(=O)(=O)c1ccc(-n2c(-c3ccc(F)cc3)n[nH]c2=S)cc1	8.55
NS(=O)(=O)C(F)(F)c1cccc(Br)c1	5.83

I = CC1CN(C)S(=O)(=O)c2ccc(N)cc21 (configuration not stated)
II = Cc1cc(OCc2cn(-c3ccc(S(N)(=O)=O)cc3)nn2)nc(N2CCOCC2)n1
III = Cc1c(NC(=O)Nc2cccc(C(=O)O)c2)oc2ccccc12
Descending sort on pKi required. # output: labels, in the requested order II, I, III

I = NS(=O)(=O)c1c(-c2ccccc2)no[n+]1[O-]
II = CC(C)Oc1ccc(/C=C/C(=O)Nc2ccc(S(N)(=O)=O)cc2)cc1
Choose between I and II : whose measured pKi value is numerically larger? Which one? Tell me its label. I
